Give measured log10 of GI50 for each item. Keep answers brief.
Tested on: LOX IMVI
Experiment: Anticancer activity against human LOX IMVI cells assessed as cell growth inhibition measured after 48 hrs by SRB assay
Assay type: functional
Hi team, quick reminder: these entries are log10 of GI50 (nM).

Prompt line: Which value of log10 of GI50 has been reported for `COC(=O)C[C@@H]1NC(=O)c2cc(Oc3cccc(N(C)C)c3)c(NC(=O)c3cc(OC)c(OC)c(OC)c3)cc2NC1=O` in the records?
Response line: 3.72

Prompt line: Which value of log10 of GI50 has been reported for `COc1cc(C(=O)Nc2cc3c(cc2Oc2cc(C)cc(C)c2)C(=O)N[C@@H](CC(N)=O)C(=O)N3)cc(OC)c1OC` in the records?
Response line: 2.54

Prompt line: Which value of log10 of GI50 has been reported for `CCCCN(CCCC)C(=O)C[C@@H]1NC(=O)c2cc(Oc3cc(C)cc(C)c3)c(NC(=O)c3cc(OC)c(OC)c(OC)c3)cc2NC1=O` in the records?
Response line: 2.53

Prompt line: Which value of log10 of GI50 has been reported for `CCN(CC)C(=O)C[C@H]1C(=O)Nc2cc(NC(=O)c3cc(OC)c(OC)c(OC)c3)c(Oc3cc(C)cc(C)c3)cc2C(=O)N1CC` in the records?
Response line: 2.13

Prompt line: Which value of log10 of GI50 has been reported for `COc1cc(C(=O)Nc2cc3c(cc2Oc2cc(C)cc(C)c2)C(=O)N[C@@H](CC(=O)N(C)C)C(=O)N3)cc(OC)c1OC` in the records?
Response line: 1.30

Prompt line: Which value of log10 of GI50 has been reported for `COC(=O)C[C@@H]1NC(=O)c2cc(Oc3cc(C)ccc3C)c(NC(=O)c3cc(OC)c(OC)c(OC)c3)cc2NC1=O` in the records?
Response line: 3.13

Prompt line: Which value of log10 of GI50 has been reported for `CCN(CC)C(=O)C[C@@H]1NC(=O)c2cc(Oc3cc(C)cc(C)c3)c(NC(=O)c3cc(OC)c(OC)c(OC)c3)cc2NC1=O` in the records?
Response line: 1.30

Recorded values, source ChEMBL document CHEMBL5214978.
